B1: Pistol ribozyme (parent)
chain: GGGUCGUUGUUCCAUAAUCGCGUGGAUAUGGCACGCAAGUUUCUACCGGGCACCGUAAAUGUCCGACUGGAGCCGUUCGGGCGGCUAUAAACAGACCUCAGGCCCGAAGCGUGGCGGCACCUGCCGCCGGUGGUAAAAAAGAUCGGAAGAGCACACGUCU

Variants of: B1
Experiment: aptazyme ON/OFF ratio, guanine; higher = stronger switching; co-transcriptional cleavage with and without guanine

change: U8A C12A C13G
aptazyme ON/OFF ratio: 1.13

change: U8G G9C U11A
aptazyme ON/OFF ratio: 1.13

change: U7G U8C G9U U10C U11C C12A
aptazyme ON/OFF ratio: 1.42

change: U8A G9C U11A C12U C13U
aptazyme ON/OFF ratio: 1.15

change: U7C U8A G9U U10A C13A
aptazyme ON/OFF ratio: 1.2

change: U7G U8A G9U U11G C12A C13G
aptazyme ON/OFF ratio: 1.05

change: U8G U11G C12U C13U
aptazyme ON/OFF ratio: 1.21

change: G9A U10G C13A
aptazyme ON/OFF ratio: 1.3

change: U7C U8C G9U U10C U11G C13A
aptazyme ON/OFF ratio: 1.07

change: U8C G9A U10A C12G C13U
aptazyme ON/OFF ratio: 1.31

change: U7C U8C G9A U10G U11A C12G C13U
aptazyme ON/OFF ratio: 1.11

change: U8A G9U U10A U11A C12G
aptazyme ON/OFF ratio: 1.25

change: U8A U10C U11A C12U C13U
aptazyme ON/OFF ratio: 1.31

change: U7G U8A G9U U11A C12A C13U
aptazyme ON/OFF ratio: 1.15

change: U7G U8A G9A U10G U11G C12A
aptazyme ON/OFF ratio: 1.14

change: U7C U8C G9U U10C U11A C12U C13A
aptazyme ON/OFF ratio: 1.13

change: U8A G9U U10A U11A C12A C13U
aptazyme ON/OFF ratio: 1.24

change: U8C G9U U10G U11A C12U C13A
aptazyme ON/OFF ratio: 1.24

change: U8A G9A U10C U11A C12G C13U
aptazyme ON/OFF ratio: 1.22

change: U7A U8C G9C U11A C12U
aptazyme ON/OFF ratio: 1.05

change: U8C G9U U10G U11A C12G C13A
aptazyme ON/OFF ratio: 1.16

change: U7G U8G G9C U10A U11G C13A
aptazyme ON/OFF ratio: 1.08

change: U7A G9C U10C U11C C12G C13G
aptazyme ON/OFF ratio: 1.09

change: U7C U8A G9A U10C U11G C13G
aptazyme ON/OFF ratio: 1.13

change: U7C U8A G9C U10C U11G C12U C13A
aptazyme ON/OFF ratio: 1.05

change: U7G U8A G9C U10G U11A C12A C13U
aptazyme ON/OFF ratio: 1.03

change: U7A U8A G9U U10A U11C C12A
aptazyme ON/OFF ratio: 1.22

change: U7C U8G G9C U10C U11A C12U C13G
aptazyme ON/OFF ratio: 1.21

change: U7A U8A C12A
aptazyme ON/OFF ratio: 1.76

change: U8A G9A U10C U11A C12A
aptazyme ON/OFF ratio: 1.31

change: U8C G9A U11C C12G C13A
aptazyme ON/OFF ratio: 1.24

change: U7G U8A G9U U10A C12A C13G
aptazyme ON/OFF ratio: 1.06

change: U7G G9A U10C C12G C13U
aptazyme ON/OFF ratio: 1.27

change: U11C C12A C13U
aptazyme ON/OFF ratio: 1.31

change: U7A G9C C12A
aptazyme ON/OFF ratio: 1.06

change: U7A G9C U10A U11A C12A C13A
aptazyme ON/OFF ratio: 1.13

change: U7G G9A U10G U11C C13U
aptazyme ON/OFF ratio: 1.08

change: U7G U8C U10G C12A C13U
aptazyme ON/OFF ratio: 1.2

change: U8A G9C U10C U11C C12A C13U
aptazyme ON/OFF ratio: 1.03

change: U7C U8C G9U U10A C13A
aptazyme ON/OFF ratio: 1.14

change: U7A U8C C12G
aptazyme ON/OFF ratio: 1.18

change: U7A U8C G9A U10G U11C C12G C13A
aptazyme ON/OFF ratio: 1.21

change: U7A U8G G9U C12U C13A
aptazyme ON/OFF ratio: 1.64

change: U7G U8G U10A U11G C12G C13U
aptazyme ON/OFF ratio: 1.22

change: U7A U8C G9C U10G U11A C12G C13A
aptazyme ON/OFF ratio: 1.02

change: U7G U8C G9U U11A
aptazyme ON/OFF ratio: 1.8

change: U7C U8G U10A U11A C12A C13G
aptazyme ON/OFF ratio: 1.12

change: U7A U8G G9U U10G C13A
aptazyme ON/OFF ratio: 1.3

change: U7C U8G U10A U11G C12A C13U
aptazyme ON/OFF ratio: 1.12

change: U7G U8A G9U U10C U11A C12A C13U
aptazyme ON/OFF ratio: 1.09

change: U7A U8G G9U U10A U11C C12U C13A
aptazyme ON/OFF ratio: 1.21

change: U7C G9C C12G C13G
aptazyme ON/OFF ratio: 1.05

change: U8C G9A U10C U11A C12U
aptazyme ON/OFF ratio: 1.55

change: U7C U8C G9U U11G C13U
aptazyme ON/OFF ratio: 1.16

change: U7G U8A G9A U10A U11A C12A C13G
aptazyme ON/OFF ratio: 1.04

change: U7C U8A G9C U10C C12G C13A
aptazyme ON/OFF ratio: 1.06

change: U7A U8A G9A U11G C12A C13G
aptazyme ON/OFF ratio: 1.11
